Test system: E. coli TESEC Alr+ wild-type control
method.description: growth (OD600 after 10 h); higher = more growth (less inhibition)
test.conditions: compound 0.1 mM; raw OD600 reference: median of DMSO wells 0.241, cell-free background 0.041
Structures can show the parent of a compound that is named as a salt.
Decision: growth compared against 0.2; not below it gives y, below it gives n.

// known answers, use as guide
# molecule, classification
records = [
    ("Cc1cccc(C)c1OCC(C)N (stereo not drawn) [Mexiletine hydrochloride]", "y"),
    ("CC(C)n1c(/C=C/C(O)CC(O)CC(=O)O)c(-c2ccc(F)cc2)c2ccccc21 (stereo not drawn) [Fluvastatin sodium salt]", "n"),
    ("CCN(CC)Cc1cc(Nc2ccnc3cc(Cl)ccc23)ccc1O [Amodiaquin dihydrochloride dihydrate]", "n"),
    ("CC(C)(C)NC[C@H](O)c1ccc(O)c(CO)c1 [Levalbuterol hydrochloride]", "y"),
    ("CN(C(=O)CN(CCO)CC(=O)N(C)C(C)(C)Cc1ccccc1)C(C)(C)Cc1ccccc1 [Oxethazaine]", "n"),
]

Answer whether growth of O=C(O)CCC(=O)Nc1ccc(S(=O)(=O)Nc2nccs2)cc1 [Succinylsulfathiazole] is greater than or equal to 0.2.
y

Answer whether growth of C[C@@H]1CCC[C@H](C)N1NC(=O)c1ccc(Cl)c(S(N)(=O)=O)c1 [Clopamide] is greater than or equal to 0.2.
y

Answer whether growth of CO[C@@]1(NC(=O)C(C(=O)O)c2ccc(O)cc2)C(=O)N2C(C(=O)O)=C(CSc3nnnn3C)CO[C@@H]21 (stereo partly drawn) [Moxalactam disodium salt] is greater than or equal to 0.2.
n

====

System: E. coli TESEC Mtb Alr
method.description: growth (OD600 after 10 h); higher = more growth (less inhibition)
test.conditions: arabinose 1000 nM; compound 0.1 mM; raw OD600 reference: median of DMSO wells 0.294, cell-free background 0.041
Structures can show the parent of a compound that is named as a salt.
As shown below, each of these molecules has a reported growth value.

Examples from the recorded data:
# molecule, measured.metric, assay.value
data = [
    ("Cc1ncc([N+](=O)[O-])n1CC(C)O (stereo not drawn)", "growth", 0.304),
    ("CNNCc1ccc(C(=O)NC(C)C)cc1 [Procarbazine hydrochloride]", "growth", 0.304),
    ("Clc1ccccc1CN1CCc2sccc2C1 [Ticlopidine hydrochloride]", "growth", 0.0555),
    ("COc1ccc2c3c1O[C@H]1C[C@@H](O)C=C[C@@]31CCN(C)C2 [Galanthamine hydrobromide]", "growth", 0.291),
]

// switching to the query molecule
Query: growth; subject: N=C(N)NS(=O)(=O)c1ccc(N)cc1
0.292

====

Tested on: E. coli TESEC Mtb DapB
method.description: growth (OD600 after 10 h); higher = more growth (less inhibition)
test.conditions: arabinose induction (level): Low; compound 0.1 mM; raw OD600 reference: median of DMSO wells 0.227, cell-free background 0.041
Structures can show the parent of a compound that is named as a salt.
As shown below, each of these compounds has a reported growth value.
Keep it simple and answer with nothing but the number.

Examples from the recorded data:
# compound, growth
rows = [
    ("Clc1cccc(Cl)c1NC1=NCCN1 [Clonidine hydrochloride]", 0.26),
    ("CO[C@H]1C[C@H](O[C@H]2[C@H](C)[C@@H](O[C@@H]3O[C@H](C)C[C@H](N(C)C)[C@H]3OC(C)=O)[C@@H](C)C[C@@]3(CO3)C(=O)[C@H](C)[C@@H](OC(C)=O)[C@@H](C)[C@@H](C)OC(=O)[C@@H]2C)O[C@@H](C)[C@@H]1OC(C)=O", 0.156),
]

// switching to the query compound
So what growth did NCCCC(O)(P(=O)(O)O)P(=O)(O)O [Alendronate sodium] get with E. coli TESEC Mtb DapB?
0.227
